# tgt: soluble IL-6R in cynomolgous plasma (cynomolgus monkey, UniProt A0A2K5WN54)
# test_name: ELISA 2, periplasmic extract; competitor IL-6; cyno plasma
Exercise: state measured OD450 ratio sample/blank for each of the binders provided.
Numbers only.

Consider the following illustrative entries.
IL6RPMP108F7 (VHH) VHH: EVQLVESGGGLVQAGGSLRLSCTASGRTFSDYDMGWFRQAPGKERECVAVIDTNGDNTLTVGSVKGRFAISRDNAKNTVYLQMNSLLPEDTAVYTCAAGAWSSLRSTAANYWGQGTQVTVSS ... 0.8
IL6RPMP103A2 (VHH) VHH: EVQLVESGGGLVQPGGSLRLSCAASGSIFSINTMGWYRQVPGKQRELVATVRSGSITNYADSVQDQFTITRDIDENTVYLQMNSLKPEDTAVYYCLTRASVPGRGYQDYWGQGTQVTVSS ... 1.09
IL6RPMP120A5 (VHH) VHH: EVQLVESGGGLVQAGGSLSLSCATSGRTISDDTMAWFRQAPGKEREFVAIITFNGARTHYSDSVRDRFTISRDNAKNTVYLQMNSLKSEDTAVYYCAASTKYYSSTYNYIHPAFYDIWGQGTQVTVSS ... 0.031

Now, please, on to the next binder.
Returns the measured OD450 ratio sample/blank for the input binder. Input: IL6RPMP100D11 (VHH) VHH: EVQLVESGGGLVQAGDSLRLSCLASGRSFKDDAMGWFRQAPGKEREFVSGIDWRGNIVDAESVKGRFTISRENAKNTLYLQMNHLKPEDTAVYYCAASSVFSDLRYRKNPKYWGQGTQVTVSS
0.962
